assay: Stability in solution for intravenous administration (release of 3-(1-methyl-3-indolyl)-4-(1-methyl-6-nitro-3-indolyl)-1H-pyrrole-2,5-dione); format: physicochemical; conditions: 72 hours at room temperature in a mixture of acetonitrile and saline or dextrose water; parent pyrrole-2,5-dione detected
Structures can show the parent of a compound that is named as a salt.

molecule: Cn1cc(C2=C(c3cn(C)c4cc([N+](=O)[O-])ccc34)C(=O)N(COC(=O)C3CCNCC3)C2=O)c2ccccc21 [Example 8a, trifluoroacetate]
Stability: Good
//
molecule: Cn1cc(C2=C(c3cn(C)c4cc([N+](=O)[O-])ccc34)C(=O)N(COC(=O)NCCOP(=O)(O)O)C2=O)c2ccccc21
Stability: Good
//
molecule: Cn1cc(C2=C(c3cn(C)c4cc([N+](=O)[O-])ccc34)C(=O)N(COC(=O)c3cccnc3)C2=O)c2ccccc21
Stability: Good

###

assay: Stability in solution for intravenous administration (release of 3-(1-methyl-3-indolyl)-4-(1-methyl-6-nitro-3-indolyl)-1H-pyrrole-2,5-dione); assay type: physicochemical; conditions: 72 hours at room temperature in a mixture of acetonitrile and saline or dextrose water; parent pyrrole-2,5-dione detected
measure: Stability

substance_smiles: CCCCCCC=CCCCCCCCC(=O)OCN1C(=O)C(c2cn(C)c3ccccc23)=C(c2cn(C)c3cc([N+](=O)[O-])ccc23)C1=O
result: Good
--
substance_smiles: Cn1cc(C2=C(c3cn(C)c4cc([N+](=O)[O-])ccc34)C(=O)N(COC(=O)COCCOCCOCCOCC(=O)O)C2=O)c2ccccc21
result: Fair
--
substance_smiles: Cn1cc(C2=C(c3cn(C)c4cc([N+](=O)[O-])ccc34)C(=O)N(C(=O)NCCCCOP(=O)([O-])[O-])C2=O)c2ccccc21.[Na+].[Na+]
result: Good
--
substance_smiles: Cn1cc(C2=C(c3cn(C)c4cc([N+](=O)[O-])ccc34)C(=O)N(COC(=O)Cc3cccnc3)C2=O)c2ccccc21
result: Good
--
substance_smiles: Cn1cc(C2=C(c3cn(C)c4cc([N+](=O)[O-])ccc34)C(=O)N(COC(=O)CCC(=O)O)C2=O)c2ccccc21
result: Good
--
substance_smiles: Cn1cc(C2=C(c3cn(C)c4cc([N+](=O)[O-])ccc34)C(=O)N(COC(=O)Cc3ccncc3)C2=O)c2ccccc21
result: Good

###

test: Plasma conversion (degradation in plasma to the active metabolite); assay type: in vitro ADME; conditions: @ 30 min; human or rodent plasma at 37° C.; percent degradation
Where a name gives a salt, the structure may show the parent alone.

compound: Cn1cc(C2=C(c3cn(C)c4cc([N+](=O)[O-])ccc34)C(=O)N(COC(=O)C3CCNCC3)C2=O)c2ccccc21 [Example 8a, trifluoroacetate]
Plasma Conversion: 30% @ 30 min

compound: Cn1cc(C2=C(c3cn(C)c4cc([N+](=O)[O-])ccc34)C(=O)N(COC(=O)c3cccnc3)C2=O)c2ccccc21
Plasma Conversion: 70% @ 30 min

compound: Cn1cc(C2=C(c3cn(C)c4cc([N+](=O)[O-])ccc34)C(=O)N(COC(=O)Cc3cccnc3)C2=O)c2ccccc21
Plasma Conversion: 70% @ 30 min

compound: Cn1cc(C2=C(c3cn(C)c4cc([N+](=O)[O-])ccc34)C(=O)N(COC(=O)CCC(=O)O)C2=O)c2ccccc21
Plasma Conversion: 20% @ 30 min

compound: Cn1cc(C2=C(c3cn(C)c4cc([N+](=O)[O-])ccc34)C(=O)N(COC(=O)Cc3ccncc3)C2=O)c2ccccc21
Plasma Conversion: 60% @ 30 min

compound: Cn1cc(C2=C(c3cn(C)c4cc([N+](=O)[O-])ccc34)C(=O)N(COC(=O)c3ccc[n+](C)c3)C2=O)c2ccccc21 [Example 12, Trifluoroacetate]
Plasma Conversion: 60% @ 30 min

###

experiment: Stability in solution for intravenous administration (release of 3-(1-methyl-3-indolyl)-4-(1-methyl-6-nitro-3-indolyl)-1H-pyrrole-2,5-dione); format: physicochemical; details: 72 hours at room temperature in a mixture of acetonitrile and saline or dextrose water; parent pyrrole-2,5-dione detected
Structures can show the parent of a compound that is named as a salt.

molecule: CCN(CC)CCNC(=O)N1C(=O)C(c2cn(C)c3ccccc23)=C(c2cn(C)c3cc([N+](=O)[O-])ccc23)C1=O
Stability: Fair
//
molecule: Cn1cc(C2=C(c3cn(C)c4cc([N+](=O)[O-])ccc34)C(=O)N(COC(=O)c3ccc[n+](C)c3)C2=O)c2ccccc21 [Example 12, Trifluoroacetate]
Stability: Fair
//
molecule: Cn1cc(C2=C(c3cn(C)c4cc([N+](=O)[O-])ccc34)C(=O)N(COC(=O)c3ccc(OP(=O)(O)O)cc3)C2=O)c2ccccc21 [Example 14, Monosodium Salt]
Stability: Good
